Measured target: mouse (His)6-CypC (Mus musculus, UniProt P30412)
Sequence (P30412 whole entry): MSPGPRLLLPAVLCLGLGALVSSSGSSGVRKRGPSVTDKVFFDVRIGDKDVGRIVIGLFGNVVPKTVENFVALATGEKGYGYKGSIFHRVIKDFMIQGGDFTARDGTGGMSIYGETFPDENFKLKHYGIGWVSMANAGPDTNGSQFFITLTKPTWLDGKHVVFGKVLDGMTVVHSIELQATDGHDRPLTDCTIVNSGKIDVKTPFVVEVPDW
Assay overview: protease-free PPIase assay, CypC
Format: biochemical
Experimental context: CypC; 35 mM HEPES pH 7.8, 283 K, Suc-Ala-Ala-Pro-Phe-pNA 60 μM
Recorded metric: Ki

- O=C(c1cc(-c2cc(F)cc([N+](=O)[O-])c2O)cc([N+](=O)[O-])c1O)C1CCc2ccccc21 (stereo not shown): > 100 µM

* * *

Measured target: CypA (Homo sapiens, UniProt P62937)
Sequence (P62937 whole entry): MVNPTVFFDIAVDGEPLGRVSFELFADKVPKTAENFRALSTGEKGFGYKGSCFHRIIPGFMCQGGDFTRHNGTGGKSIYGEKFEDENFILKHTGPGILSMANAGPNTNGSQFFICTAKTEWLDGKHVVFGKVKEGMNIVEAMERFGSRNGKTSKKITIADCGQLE
Recorded metric: Kd (µM)

- O=C(c1cc(-c2cc(F)cc([N+](=O)[O-])c2O)cc([N+](=O)[O-])c1O)C1CCc2ccccc21 (stereo not shown) [Compound 1]: 22.6
